Taken from paper PMC4336329.

Listing: hERG current change (%, negative = inhibition) at 10uM of selected molecules
molecular target: human ether-à-go-go-related gene (hERG) potassium channel (human, UniProt Q12809); assay: primary screen, population patch clamp on CHO cells stably expressing hERG; higher = less effect of the substance;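 further: peak tail current of the secondary pulse compared with the same well before compound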
Sequence (Q12809 whole entry, looked up): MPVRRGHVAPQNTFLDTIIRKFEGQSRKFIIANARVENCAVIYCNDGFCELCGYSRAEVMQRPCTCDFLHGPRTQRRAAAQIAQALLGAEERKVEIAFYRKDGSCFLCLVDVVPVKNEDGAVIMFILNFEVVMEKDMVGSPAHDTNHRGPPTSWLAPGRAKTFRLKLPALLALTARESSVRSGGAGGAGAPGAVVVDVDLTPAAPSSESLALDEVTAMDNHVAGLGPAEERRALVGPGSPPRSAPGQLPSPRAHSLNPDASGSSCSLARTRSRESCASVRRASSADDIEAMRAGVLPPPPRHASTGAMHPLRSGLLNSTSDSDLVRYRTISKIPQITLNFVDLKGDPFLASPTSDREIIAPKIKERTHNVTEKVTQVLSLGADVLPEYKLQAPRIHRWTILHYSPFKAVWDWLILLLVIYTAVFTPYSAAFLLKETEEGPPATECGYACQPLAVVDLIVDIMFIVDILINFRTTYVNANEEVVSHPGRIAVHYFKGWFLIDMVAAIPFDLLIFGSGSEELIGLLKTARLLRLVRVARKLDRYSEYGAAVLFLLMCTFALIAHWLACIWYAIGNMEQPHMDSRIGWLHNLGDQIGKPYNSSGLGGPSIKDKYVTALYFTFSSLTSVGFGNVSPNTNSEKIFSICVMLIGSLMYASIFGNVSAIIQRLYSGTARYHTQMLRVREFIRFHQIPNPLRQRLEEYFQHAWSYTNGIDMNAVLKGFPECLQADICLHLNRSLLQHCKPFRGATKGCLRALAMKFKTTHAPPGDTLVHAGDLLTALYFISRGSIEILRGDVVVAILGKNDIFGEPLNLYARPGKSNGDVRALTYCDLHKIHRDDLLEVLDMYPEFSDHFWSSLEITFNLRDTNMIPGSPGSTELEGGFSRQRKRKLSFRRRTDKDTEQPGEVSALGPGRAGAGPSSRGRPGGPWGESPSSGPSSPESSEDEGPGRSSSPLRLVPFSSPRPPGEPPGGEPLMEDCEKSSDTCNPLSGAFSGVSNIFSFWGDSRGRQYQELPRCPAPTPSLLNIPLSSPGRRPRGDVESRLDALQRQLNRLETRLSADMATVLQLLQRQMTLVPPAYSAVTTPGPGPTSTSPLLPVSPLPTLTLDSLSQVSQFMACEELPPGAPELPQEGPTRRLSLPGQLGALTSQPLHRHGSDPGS
Among all 310,000 compounds or so, about 14,000 (4.5%) showed an effect of 50% or more. The effect is printed as a negative number. What follows is part of a selection rich in strong results, with near analogues and random picks from the rest.
metric: hERG current change (%, negative = inhibition) at 10uM (%)

- molecule: "CCC(C)(C)NC(=O)CN(Cc1cccs1)C(=O)CCC(=O)Nc1nccs1"
  endpoint_unit: "%"
  readout_number: -36.6
- molecule: "COc1ccc(COCC(O)CN2CCc3ccccc3C2)cc1OC.Cl (stereo not drawn)"
  endpoint_unit: "%"
  readout_number: 1.52
- molecule: "O=C(c1ccccn1)N(Cc1ccco1)C1(C(=O)NC2CCCCC2)CCCCC1"
  endpoint_unit: "%"
  readout_number: 10.9
- molecule: "CCOc1ccc(C)cc1S(=O)(=O)n1ccc(C)n1"
  endpoint_unit: "%"
  readout_number: 4.82
- molecule: "Cl.OC(COCc1ccccc1)CN1CCCC1 (stereo not drawn)"
  endpoint_unit: "%"
  readout_number: -6.03
- molecule: "O=C(c1cccs1)N1CCN(c2ncccn2)CC1"
  endpoint_unit: "%"
  readout_number: 0.299
- molecule: "O=C(NN1C(=O)c2ccccc2NC1c1ccco1)c1ccccc1 (stereo not drawn)"
  endpoint_unit: "%"
  readout_number: -0.469
- molecule: "Cc1cccc2c1NC(C)CC2C.Cl (stereo not drawn)"
  endpoint_unit: "%"
  readout_number: 8.01
- molecule: "COc1ccc(Oc2cccc(Cl)c2CNC(=O)c2ccccc2C(=O)O)cc1"
  endpoint_unit: "%"
  readout_number: 4.98
